The entries below are paired with their reported Score (nephrotoxicity on kidney organoids).
# Tested on: kidney organoids derived from human induced pluripotent stem cells
# assayRemarks: Nephrotoxicity on kidney organoids, renal tubule deterioration by bright field imaging; also: key: 1 = unaffected; 2 = mild deterioration; 3 = severe deterioration; 4 = complete deterioration
# Type: cell-based
# statedConditions: 1 mM, scored after 48 h
Positions of bridges follow the written chain, without caps; N, C: chain ends. Non-standard residues stand in square brackets, D forms with d. Residues, ends and D or L forms follow the SMILES beside them. *: point of attachment. Ethyl(2-propionyloxy) = CCC(=O)OCC*; Ethyl(2-OPiv) = CC(C)(C)C(=O)OCC*; Ethyl(2-OBz) = O=C(OCC*)c1ccccc1; Dab = NCC[C@H](N)C(=O)O
Just the number, please, no unit after it.

Example cases with answers are listed next.
1. CCC(=O)OCCSC[C@H](N)C(=O)N[C@@H](CCN)C(=O)N[C@H](C(=O)N[C@@H](CCN)C(=O)N[C@H]1CCNC(=O)[C@H]([C@@H](C)O)NC(=O)[C@H](CCN)NC(=O)[C@H](CCN)NC(=O)[C@H](CSCCOC(=O)c2ccccc2)NC(=O)[C@@H](Cc2ccccc2)NC(=O)[C@H](CCN)NC1=O)[C@@H](C)O [Compound 44] (H-C(Ethyl(2-propionyloxy))[Dab]T[Dab][Dab][Dab][dF]C(Ethyl(2-OBz))[Dab][Dab]T; lactam 5-C) : 3
2. C[C@@H](O)[C@@H]1NC(=O)[C@H](CCN)NC(=O)[C@H](CCN)NC(=O)[C@H](CSCCOC(=O)c2ccccc2)NC(=O)[C@@H](Cc2ccccc2)NC(=O)[C@H](CCN)NC(=O)[C@@H](NC(=O)[C@H](CCN)NC(=O)[C@@H](NC(=O)[C@H](CCN)NC(=O)[C@@H](N)CSCCOC(=O)C(C)(C)C)[C@@H](C)O)CCNC1=O [Compound 46] (H-C(Ethyl(2-OPiv))[Dab]T[Dab][Dab][Dab][dF]C(Ethyl(2-OBz))[Dab][Dab]T; lactam 5-C) : 4

As a next step, examine the compound that follows.
Name the recorded Score (nephrotoxicity on kidney organoids) for CC(C)C[C@@H]1NC(=O)[C@@H](Cc2ccccc2)NC(=O)[C@H](CCN)NC(=O)[C@@H](NC(=O)[C@H](CCN)NC(=O)[C@@H](NC(=O)[C@H](CCN)NC(=O)[C@@H](N)CSCCOC(=O)c2ccccc2)[C@@H](C)O)CCNC(=O)[C@H]([C@@H](C)O)NC(=O)[C@H](CCN)NC(=O)[C@H](CCN)NC1=O [Compound 33] (H-C(Ethyl(2-OBz))[Dab]T[Dab][Dab][Dab][dF]L[Dab][Dab]T; lactam 5-C) .
4

* * *

# Test system: kidney organoids derived from human induced pluripotent stem cells
# assayRemarks: Nephrotoxicity on kidney organoids, renal tubule deterioration by bright field imaging; also: key: 1 = unaffected; 2 = mild deterioration; 3 = severe deterioration; 4 = complete deterioration
# Type: cell-based
# statedConditions: 1 mM, scored after 48 h
Positions of bridges follow the written chain, without caps; N, C: chain ends. Non-standard residues stand in square brackets, D forms with d. Residues, ends and D or L forms follow the SMILES beside them. *: point of attachment. Ethyl(2-propionyloxy) = CCC(=O)OCC*; Ethyl(2-OPiv) = CC(C)(C)C(=O)OCC*; Ethyl(2-OBz) = O=C(OCC*)c1ccccc1; Dab = NCC[C@H](N)C(=O)O; X3 = CCCC(C)C(=O)OCC*
quantityName: Score (nephrotoxicity on kidney organoids)

Example cases with answers are listed next.
1. CCCC(C)C(=O)OCCSC[C@@H](N)C(=O)N[C@H](C(=O)N[C@@H](CCN)C(=O)N[C@H]1CCNC(=O)[C@H]([C@@H](C)O)NC(=O)[C@H](CCN)NC(=O)[C@H](CCN)NC(=O)[C@H](CC(C)C)NC(=O)[C@@H](Cc2ccccc2)NC(=O)[C@H](CCN)NC1=O)[C@@H](C)O (some centres unmarked) [Compound 94] (H-[dC](X3)T[Dab][Dab][Dab][dF]L[Dab][Dab]T; lactam 4-C) : 3
2. C[C@@H](O)[C@@H]1NC(=O)[C@H](CCN)NC(=O)[C@H](CCN)NC(=O)[C@H](CSCCOC(=O)c2ccccc2)NC(=O)[C@@H](Cc2ccccc2)NC(=O)[C@H](CCN)NC(=O)[C@@H](NC(=O)[C@H](CCN)NC(=O)[C@@H](NC(=O)[C@H](CCN)NC(=O)[C@@H](N)CSCCOC(=O)c2ccccc2)[C@@H](C)O)CCNC1=O [Compound 39] (H-C(Ethyl(2-OBz))[Dab]T[Dab][Dab][Dab][dF]C(Ethyl(2-OBz))[Dab][Dab]T; lactam 5-C) : 4
3. CC(=O)N[C@@H](CSCCOC(=O)c1ccccc1)C(=O)N[C@@H](CCN)C(=O)N[C@H](C(=O)N[C@@H](CCN)C(=O)N[C@H]1CCNC(=O)[C@H]([C@@H](C)O)NC(=O)[C@H](CCN)NC(=O)[C@H](CCN)NC(=O)[C@H](CSCCOC(=O)c2ccccc2)NC(=O)[C@@H](Cc2ccccc2)NC(=O)[C@H](CCN)NC1=O)[C@@H](C)O [Compound 49] (Ac-C(Ethyl(2-OBz))[Dab]T[Dab][Dab][Dab][dF]C(Ethyl(2-OBz))[Dab][Dab]T; lactam 5-C) : 4
4. C[C@@H](O)[C@@H]1NC(=O)[C@H](CCN)NC(=O)[C@H](CCN)NC(=O)[C@H](CSCCOC(=O)C(C)(C)C)NC(=O)[C@@H](Cc2ccccc2)NC(=O)[C@H](CCN)NC(=O)[C@@H](NC(=O)[C@H](CCN)NC(=O)[C@@H](NC(=O)[C@H](CCN)NC(=O)[C@@H](N)CSCCOC(=O)c2ccccc2)[C@@H](C)O)CCNC1=O [Compound 48] (H-C(Ethyl(2-OBz))[Dab]T[Dab][Dab][Dab][dF]C(Ethyl(2-OPiv))[Dab][Dab]T; lactam 5-C) : 4

As a next step, examine the compound that follows.
Name the recorded Score (nephrotoxicity on kidney organoids) for CCC(=O)OCCSC[C@@H]1NC(=O)[C@@H](Cc2ccccc2)NC(=O)[C@H](CCN)NC(=O)[C@@H](NC(=O)[C@H](CCN)NC(=O)[C@@H](NC(=O)[C@H](CCN)NC(=O)[C@@H](N)CSCCOC(=O)c2ccccc2)[C@@H](C)O)CCNC(=O)[C@H]([C@@H](C)O)NC(=O)[C@H](CCN)NC(=O)[C@H](CCN)NC1=O [Compound 47] (H-C(Ethyl(2-OBz))[Dab]T[Dab][Dab][Dab][dF]C(Ethyl(2-propionyloxy))[Dab][Dab]T; lactam 5-C) .
3

* * *

# System: K. pneumoniae ATCC MS6671
# Format: cell-based, Klebsiella pneumoniae
# statedConditions: median of triplicate
Positions of bridges follow the written chain, without caps; N, C: chain ends. Non-standard residues stand in square brackets, D forms with d. Residues, ends and D or L forms follow the SMILES beside them. *: point of attachment. Ethyl(2-propionyloxy) = CCC(=O)OCC*; Ethyl(2-OBz) = O=C(OCC*)c1ccccc1; Dab = NCC[C@H](N)C(=O)O; X3 = CCCC(C)C(=O)OCC*
quantityName: MIC K. pneumoniae ATCC MS6671

1) CCC(=O)OCCSC[C@@H]1NC(=O)[C@@H](Cc2ccccc2)NC(=O)[C@H](CCN)NC(=O)[C@@H](NC(=O)[C@H](CCN)NC(=O)[C@@H](NC(=O)[C@H](CCN)NC(=O)[C@@H](N)CSCCOC(=O)c2ccccc2)[C@@H](C)O)CCNC(=O)[C@H]([C@@H](C)O)NC(=O)[C@H](CCN)NC(=O)[C@H](CCN)NC1=O [Compound 47] (H-C(Ethyl(2-OBz))[Dab]T[Dab][Dab][Dab][dF]C(Ethyl(2-propionyloxy))[Dab][Dab]T; lactam 5-C) : >32 mg/L

As a next step, examine the compound that follows.
Name the recorded MIC K. pneumoniae ATCC MS6671 for CCCC(C)C(=O)OCCSC[C@@H](N)C(=O)N[C@H](C(=O)N[C@@H](CCN)C(=O)N[C@H]1CCNC(=O)[C@H]([C@@H](C)O)NC(=O)[C@H](CCN)NC(=O)[C@H](CCN)NC(=O)[C@H](CC(C)C)NC(=O)[C@@H](Cc2ccccc2)NC(=O)[C@H](CCN)NC1=O)[C@@H](C)O (some centres unmarked) [Compound 94] (H-[dC](X3)T[Dab][Dab][Dab][dF]L[Dab][Dab]T; lactam 4-C) .
>32 mg/L

* * *

The entries below are paired with their reported MIC A. baumannii ATCC 19606.
# Tested on: A. baumannii ATCC 19606
# Format: cell-based, Acinetobacter baumannii
# statedConditions: median of triplicate
Positions of bridges follow the written chain, without caps; N, C: chain ends. Non-standard residues stand in square brackets, D forms with d. Residues, ends and D or L forms follow the SMILES beside them. *: point of attachment. Ethyl(2-OPiv) = CC(C)(C)C(=O)OCC*; Ethyl(2-OBz) = O=C(OCC*)c1ccccc1; Lauroyl = CCCCCCCCCCCC(=O)*; Octanoyl = CCCCCCCC(=O)*; Dab = NCC[C@H](N)C(=O)O; Butyryl = CCCC(=O)*

Example cases with answers are listed next.
1) CCCC(=O)N[C@@H](CSCCOC(=O)c1ccccc1)C(=O)N[C@@H](CCN)C(=O)N[C@H](C(=O)N[C@@H](CCN)C(=O)N[C@H]1CCNC(=O)[C@H]([C@@H](C)O)NC(=O)[C@H](CCN)NC(=O)[C@H](CCN)NC(=O)[C@H](CSCCOC(=O)c2ccccc2)NC(=O)[C@@H](Cc2ccccc2)NC(=O)[C@H](CCN)NC1=O)[C@@H](C)O [Compound 50] (Butyryl-C(Ethyl(2-OBz))[Dab]T[Dab][Dab][Dab][dF]C(Ethyl(2-OBz))[Dab][Dab]T; lactam 5-C) : 1 to 2 µg/mL
2) CCCCCCCCCCCC(=O)N[C@@H](CSCCOC(=O)c1ccccc1)C(=O)N[C@@H](CCN)C(=O)N[C@H](C(=O)N[C@@H](CCN)C(=O)N[C@H]1CCNC(=O)[C@H]([C@@H](C)O)NC(=O)[C@H](CCN)NC(=O)[C@H](CCN)NC(=O)[C@H](CSCCOC(=O)c2ccccc2)NC(=O)[C@@H](Cc2ccccc2)NC(=O)[C@H](CCN)NC1=O)[C@@H](C)O [Compound 52] (Lauroyl-C(Ethyl(2-OBz))[Dab]T[Dab][Dab][Dab][dF]C(Ethyl(2-OBz))[Dab][Dab]T; lactam 5-C) : 2 to 4 µg/mL
3) CCCCCCCC(=O)N[C@@H](CSCCOC(=O)c1ccccc1)C(=O)N[C@@H](CCN)C(=O)N[C@H](C(=O)N[C@@H](CCN)C(=O)N[C@H]1CCNC(=O)[C@H]([C@@H](C)O)NC(=O)[C@H](CCN)NC(=O)[C@H](CCN)NC(=O)[C@H](CSCCOC(=O)c2ccccc2)NC(=O)[C@@H](Cc2ccccc2)NC(=O)[C@H](CCN)NC1=O)[C@@H](C)O [Compound 51] (Octanoyl-C(Ethyl(2-OBz))[Dab]T[Dab][Dab][Dab][dF]C(Ethyl(2-OBz))[Dab][Dab]T; lactam 5-C) : 1 to 2 µg/mL

Name the recorded MIC A. baumannii ATCC 19606 for CC(C)C[C@@H]1NC(=O)[C@@H](Cc2ccccc2)NC(=O)[C@H](CCN)NC(=O)[C@@H](NC(=O)[C@H](CCN)NC(=O)[C@@H](NC(=O)[C@H](CCN)NC(=O)[C@@H](N)CSCCOC(=O)c2ccccc2)[C@@H](C)O)CCCCNC(=O)[C@H]([C@@H](C)O)NC(=O)[C@H](CCN)NC(=O)[C@H](CCN)NC1=O [Compound 27] (H-C(Ethyl(2-OBz))[Dab]T[Dab]K[Dab][dF]L[Dab][Dab]T; lactam 5-C) .
>32 µg/mL

Next entry: C[C@@H](O)[C@@H]1NC(=O)[C@H](CCN)NC(=O)[C@H](CCN)NC(=O)[C@H](CSCCOC(=O)c2ccccc2)NC(=O)[C@@H](Cc2ccccc2)NC(=O)[C@H](CCN)NC(=O)[C@@H](NC(=O)[C@H](CCN)NC(=O)[C@@H](NC(=O)[C@H](CCN)NC(=O)[C@@H](N)CSCCOC(=O)C(C)(C)C)[C@@H](C)O)CCNC1=O [Compound 46] (H-C(Ethyl(2-OPiv))[Dab]T[Dab][Dab][Dab][dF]C(Ethyl(2-OBz))[Dab][Dab]T; lactam 5-C)
16 µg/mL
